measurement-protocol: Half life in rat liver microsomes
Assay type: ADME
endpoint-label: half-life (min)

* CC1(C)C(=O)N([C@H]2CCc3c(O)cccc32)c2nc(Nc3ccccc3)ncc21 | 9

* * *

measurement-protocol: Volume of distribution in dog
Type: ADME, Canis lupus familiaris
particulars: in vivo
endpoint-label: Vd (L/kg)

- CC1(C)C(=O)N([C@H]2CCc3c(O)cccc32)c2nc(Nc3ccccc3)ncc21: 4

* * *

measurement-protocol: Clearance in dog plasma
Assay type: ADME, cell-free, Canis lupus familiaris
endpoint-label: clearance (mL/min/kg)

- CC1(C)C(=O)N([C@H]2CCc3c(O)cccc32)c2nc(Nc3ccccc3)ncc21: 68

* * *

measurement-protocol: Half life in rat
Format: ADME
particulars: in vivo
endpoint-label: half-life (min)

• CC1(C)C(=O)N([C@H]2CCc3c(O)cccc32)c2nc(Nc3ccccc3)ncc21 = 48
